# target_or_test_system: ALK (Homo sapiens)
# Sequence (Q9UM73 19-1620): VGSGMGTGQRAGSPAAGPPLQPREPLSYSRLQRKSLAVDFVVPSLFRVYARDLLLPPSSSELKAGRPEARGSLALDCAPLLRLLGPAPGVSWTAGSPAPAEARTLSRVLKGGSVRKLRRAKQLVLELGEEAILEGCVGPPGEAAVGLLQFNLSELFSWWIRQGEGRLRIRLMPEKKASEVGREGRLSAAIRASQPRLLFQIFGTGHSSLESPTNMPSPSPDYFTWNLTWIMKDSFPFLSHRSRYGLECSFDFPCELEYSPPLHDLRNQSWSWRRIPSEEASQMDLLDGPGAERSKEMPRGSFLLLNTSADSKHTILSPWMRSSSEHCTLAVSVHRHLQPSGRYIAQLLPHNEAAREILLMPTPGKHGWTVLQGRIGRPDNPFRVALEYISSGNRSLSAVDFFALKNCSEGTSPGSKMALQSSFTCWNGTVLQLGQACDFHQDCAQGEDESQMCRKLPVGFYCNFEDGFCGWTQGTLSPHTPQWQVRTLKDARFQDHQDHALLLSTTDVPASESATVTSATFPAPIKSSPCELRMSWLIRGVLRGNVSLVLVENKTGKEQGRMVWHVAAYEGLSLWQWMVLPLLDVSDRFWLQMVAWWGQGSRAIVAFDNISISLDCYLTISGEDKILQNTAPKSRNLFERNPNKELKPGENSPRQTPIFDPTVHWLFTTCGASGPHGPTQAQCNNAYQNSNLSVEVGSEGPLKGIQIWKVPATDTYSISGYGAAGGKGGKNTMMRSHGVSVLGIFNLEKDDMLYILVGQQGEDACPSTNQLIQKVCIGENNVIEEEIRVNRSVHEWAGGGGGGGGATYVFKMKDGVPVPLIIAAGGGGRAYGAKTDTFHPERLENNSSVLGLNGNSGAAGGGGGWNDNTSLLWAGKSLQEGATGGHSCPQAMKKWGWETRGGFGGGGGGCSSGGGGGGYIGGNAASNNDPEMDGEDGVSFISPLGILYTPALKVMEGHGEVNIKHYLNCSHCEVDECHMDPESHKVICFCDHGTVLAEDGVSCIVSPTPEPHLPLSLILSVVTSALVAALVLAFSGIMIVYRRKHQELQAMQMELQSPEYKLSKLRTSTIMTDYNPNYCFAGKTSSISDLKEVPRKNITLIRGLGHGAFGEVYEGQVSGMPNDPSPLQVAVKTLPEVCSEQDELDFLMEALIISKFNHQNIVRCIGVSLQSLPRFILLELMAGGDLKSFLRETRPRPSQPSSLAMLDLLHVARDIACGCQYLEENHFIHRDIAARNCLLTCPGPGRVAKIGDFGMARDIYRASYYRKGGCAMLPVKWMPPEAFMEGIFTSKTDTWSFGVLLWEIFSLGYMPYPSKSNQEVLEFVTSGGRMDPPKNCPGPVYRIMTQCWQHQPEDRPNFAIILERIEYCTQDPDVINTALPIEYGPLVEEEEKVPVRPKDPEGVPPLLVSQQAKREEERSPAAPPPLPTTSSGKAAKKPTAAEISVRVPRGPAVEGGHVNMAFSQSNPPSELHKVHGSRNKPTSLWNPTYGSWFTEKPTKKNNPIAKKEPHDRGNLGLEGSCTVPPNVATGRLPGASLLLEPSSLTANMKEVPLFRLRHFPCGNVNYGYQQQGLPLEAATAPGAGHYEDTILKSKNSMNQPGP
pIC50: −log10 of the molar value.
In this section we review reported pIC50 values for a set of molecules.

Some solved entries appear below for comparison.
1. Cc1ccc(Nc2nc(Nc3cc(NC(=O)CN(C)C)ccc3C)nc3[nH]ccc23)c(C(N)=O)c1 6.70 to 8.30
2. COc1cc2c(cc1Nc1nc(Nc3cc(F)cc(F)c3C(N)=O)c3cc[nH]c3n1)N(C(=O)CN(C)C)CCC2 9.00 to 9.60
3. CNC(=O)c1c(F)cccc1Nc1nc(Nc2cc3c(cc2OC)CCN3C(=O)CN(C)C)nc2[nH]cc(C)c12 9.00 to 9.60
4. CCCN1CCC=C(c2ccc(Nc3nc(Nc4ccc(C)cc4C(N)=O)c4cc[nH]c4n3)c(C)c2)C1 8.40 to 8.90
5. CCOc1cc2c(cc1Nc1nc(Nc3cccc(F)c3C(=O)NC)c3cc[nH]c3n1)N(C(=O)CN(C)C)CCC2 8.40 to 8.90
6. COc1ccc(OC[C@@H](O)CN2CCCC2)cc1Nc1nc(Nc2cc(F)c(F)cc2C(N)=O)c2cc[nH]c2n1 8.40 to 8.90

Now for the molecule whose pIC50 we want.
Ask | Record CNC(=O)c1c(F)cccc1Nc1nc(Nc2cc3c(cc2OC)CCN3C(=O)CN(C)C)nc2[nH]cc(F)c12 : what is its pIC50 with ALK (Homo sapiens)?
Reply | 9.00 to 9.60

====

# target_or_test_system: NIH-3T3 cells overexpressing human IR (Homo sapiens, UniProt P06213)
# Sequence (P06213 28-1382): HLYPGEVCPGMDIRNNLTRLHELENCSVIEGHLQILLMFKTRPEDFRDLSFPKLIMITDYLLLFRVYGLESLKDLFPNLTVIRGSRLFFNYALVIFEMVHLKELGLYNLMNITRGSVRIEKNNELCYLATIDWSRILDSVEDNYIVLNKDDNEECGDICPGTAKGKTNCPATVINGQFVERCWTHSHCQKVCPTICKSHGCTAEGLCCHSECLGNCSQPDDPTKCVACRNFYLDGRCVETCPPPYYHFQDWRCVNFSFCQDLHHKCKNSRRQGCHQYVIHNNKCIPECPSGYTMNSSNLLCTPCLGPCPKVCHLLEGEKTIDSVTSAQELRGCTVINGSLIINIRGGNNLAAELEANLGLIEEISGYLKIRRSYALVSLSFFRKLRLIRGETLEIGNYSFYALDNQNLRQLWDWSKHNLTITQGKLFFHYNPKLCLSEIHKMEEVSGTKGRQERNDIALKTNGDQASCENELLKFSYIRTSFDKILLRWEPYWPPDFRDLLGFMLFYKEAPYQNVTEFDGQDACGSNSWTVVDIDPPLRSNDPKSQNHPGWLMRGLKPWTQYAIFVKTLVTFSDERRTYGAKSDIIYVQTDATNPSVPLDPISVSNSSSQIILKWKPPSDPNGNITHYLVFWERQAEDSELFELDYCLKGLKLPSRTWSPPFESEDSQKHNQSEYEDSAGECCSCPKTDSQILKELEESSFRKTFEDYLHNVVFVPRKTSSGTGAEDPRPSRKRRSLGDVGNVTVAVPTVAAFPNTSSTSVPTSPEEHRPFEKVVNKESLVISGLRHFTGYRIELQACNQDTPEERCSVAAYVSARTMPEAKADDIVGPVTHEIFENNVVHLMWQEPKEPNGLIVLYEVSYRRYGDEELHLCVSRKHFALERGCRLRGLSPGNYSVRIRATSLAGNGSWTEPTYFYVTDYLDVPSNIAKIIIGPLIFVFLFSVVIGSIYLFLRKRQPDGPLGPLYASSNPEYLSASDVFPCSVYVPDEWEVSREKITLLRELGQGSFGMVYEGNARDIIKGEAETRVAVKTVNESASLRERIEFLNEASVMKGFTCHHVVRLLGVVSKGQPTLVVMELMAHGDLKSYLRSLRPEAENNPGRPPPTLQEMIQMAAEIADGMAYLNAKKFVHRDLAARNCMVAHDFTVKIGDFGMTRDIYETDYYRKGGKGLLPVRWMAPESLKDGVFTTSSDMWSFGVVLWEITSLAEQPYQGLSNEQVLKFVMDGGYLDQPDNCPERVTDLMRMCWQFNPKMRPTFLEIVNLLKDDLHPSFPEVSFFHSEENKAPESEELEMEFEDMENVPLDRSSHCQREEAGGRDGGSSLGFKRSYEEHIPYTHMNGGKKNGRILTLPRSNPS
# measurement_notes: IR cellular autophosphorylation (DELFIA)
# test_settings: 2 h compound, insulin 3 ug/ml for 15 minutes, IC50 category
endpoint_name: IC50

Some solved entries appear below for comparison.
1) COc1cc(N2CCC(N3CC[C@@H](F)C3)CC2)ccc1Nc1nc(Nc2cccc(F)c2C(N)=O)c2cc[nH]c2n1 > 500 nM
2) CNC(=O)c1c(F)cccc1Nc1nc(Nc2cc3c(cc2OC)C[C@H](C)N3C(=O)CN(C)C)nc2[nH]ccc12 < 100 nM

Ask | Which IC50 value is on record for COc1cc2c(cc1Nc1nc(Nc3cccc(F)c3C(N)=O)c3cc[nH]c3n1)N(C(=O)CN1CCCC1)CC2 ?
Reply | < 100 nM

Ask | Which IC50 value is on record for CCCN1CCC=C(c2ccc(Nc3nc(Nc4ccccc4C(N)=O)c4cc[nH]c4n3)c(OC)c2)C1 ?
Reply | 100 to 500 nM

Ask | Which IC50 value is on record for COc1cc(N2CCN(C(C)C)CC2)ccc1Nc1nc(Nc2cc(F)cc(OC)c2C(N)=O)c2cc[nH]c2n1 ?
Reply | > 500 nM

Ask | Which IC50 value is on record for CCCN1CCC=C(c2ccc(Nc3nc(Nc4cccc(F)c4C(N)=O)c4cc[nH]c4n3)c(OC)c2)C1 ?
Reply | 100 to 500 nM

Ask | Which IC50 value is on record for CCN(CC)CC(=O)N1CCc2cc(OC)c(Nc3nc(Nc4cccc(F)c4C(N)=O)c4cc[nH]c4n3)cc21 ?
Reply | < 100 nM

====

# target_or_test_system: human IGF1R (hIGF1R) (Homo sapiens, UniProt P08069)
# Construct: containing amino acid residues 957-1367 of human IGF1R; made in house; host or cells: Sf9 cells (baculovirus)
# Sequence (P08069 957-1367): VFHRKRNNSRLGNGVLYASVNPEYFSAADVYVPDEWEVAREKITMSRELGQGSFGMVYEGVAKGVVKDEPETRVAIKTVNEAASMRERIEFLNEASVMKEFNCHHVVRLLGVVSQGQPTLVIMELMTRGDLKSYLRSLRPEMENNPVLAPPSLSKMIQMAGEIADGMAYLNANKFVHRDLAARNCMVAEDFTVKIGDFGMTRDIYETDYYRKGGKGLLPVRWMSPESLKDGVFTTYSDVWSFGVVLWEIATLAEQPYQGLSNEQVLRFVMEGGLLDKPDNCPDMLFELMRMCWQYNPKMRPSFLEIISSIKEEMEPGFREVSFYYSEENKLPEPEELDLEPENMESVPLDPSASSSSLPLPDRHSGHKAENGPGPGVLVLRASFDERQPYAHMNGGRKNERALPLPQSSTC
# measurement_notes: TR-FRET kinase assay of purified hIGF1R
# Assay type: biochemical
# test_settings: activated hIGF1R 0.5 nM, 10 μM ATP, values given as pIC50 category, read-out: IGF-1R pIC50 (converted)
endpoint_name: IC50

1. COc1cc2c(cc1Nc1nc(Nc3cccc(F)c3C(=O)NC(C)C)c3cc[nH]c3n1)N(C(=O)CN(C)C)CC2 1.26 to 3.98 nM

Ask | Record COc1cc(C2=CCN(C(C)C)CC2)ccc1Nc1nc(Nc2cc(F)ccc2C(N)=O)c2cc[nH]c2n1 : what is its IC50 with human IGF1R (hIGF1R) (Homo sapiens, UniProt P08069)?
Reply | 0.251 to 1 nM

Ask | Record CCCN1CCC=C(c2ccc(Nc3nc(Nc4ccc(Cl)cc4C(N)=O)c4cc[nH]c4n3)c(OC)c2)C1 : what is its IC50 with human IGF1R (hIGF1R) (Homo sapiens, UniProt P08069)?
Reply | 0.251 to 1 nM

====

# target_or_test_system: NIH-3T3 cells overexpressing human IGF-1R (Homo sapiens, UniProt P08069)
# Sequence (P08069 31-1367): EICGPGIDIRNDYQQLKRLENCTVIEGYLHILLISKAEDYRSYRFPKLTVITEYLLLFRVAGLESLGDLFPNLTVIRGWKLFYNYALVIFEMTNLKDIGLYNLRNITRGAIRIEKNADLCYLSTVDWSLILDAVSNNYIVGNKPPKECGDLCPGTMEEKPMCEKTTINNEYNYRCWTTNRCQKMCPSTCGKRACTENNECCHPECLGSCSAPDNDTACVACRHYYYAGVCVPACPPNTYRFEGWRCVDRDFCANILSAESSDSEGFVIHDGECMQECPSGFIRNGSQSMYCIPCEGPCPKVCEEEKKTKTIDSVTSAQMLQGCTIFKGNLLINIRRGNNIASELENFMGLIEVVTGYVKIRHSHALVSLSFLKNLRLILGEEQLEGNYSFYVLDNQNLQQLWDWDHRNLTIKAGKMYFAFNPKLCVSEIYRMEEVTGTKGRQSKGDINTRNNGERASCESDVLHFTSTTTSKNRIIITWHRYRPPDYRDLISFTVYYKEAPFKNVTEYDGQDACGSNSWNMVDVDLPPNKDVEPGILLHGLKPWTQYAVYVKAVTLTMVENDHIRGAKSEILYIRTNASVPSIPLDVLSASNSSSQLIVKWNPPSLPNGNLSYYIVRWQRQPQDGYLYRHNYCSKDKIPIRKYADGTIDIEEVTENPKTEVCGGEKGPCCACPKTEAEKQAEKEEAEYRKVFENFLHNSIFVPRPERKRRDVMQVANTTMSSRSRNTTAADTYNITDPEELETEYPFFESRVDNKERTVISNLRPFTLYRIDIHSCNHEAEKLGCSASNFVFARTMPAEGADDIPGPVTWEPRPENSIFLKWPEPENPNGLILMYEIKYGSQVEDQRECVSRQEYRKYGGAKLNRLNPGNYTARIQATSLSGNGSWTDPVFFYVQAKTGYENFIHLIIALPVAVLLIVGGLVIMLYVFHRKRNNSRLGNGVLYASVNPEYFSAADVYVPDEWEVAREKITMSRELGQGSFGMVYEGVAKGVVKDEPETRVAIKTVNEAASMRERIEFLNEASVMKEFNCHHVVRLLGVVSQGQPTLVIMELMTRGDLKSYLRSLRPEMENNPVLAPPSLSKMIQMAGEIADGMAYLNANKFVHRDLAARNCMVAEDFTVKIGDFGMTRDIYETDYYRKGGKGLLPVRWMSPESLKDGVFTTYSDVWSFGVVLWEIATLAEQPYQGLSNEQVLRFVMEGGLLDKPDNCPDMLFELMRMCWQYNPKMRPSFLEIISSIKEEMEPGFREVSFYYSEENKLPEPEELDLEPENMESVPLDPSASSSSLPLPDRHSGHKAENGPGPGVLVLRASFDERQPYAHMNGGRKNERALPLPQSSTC
# measurement_notes: IGF-1R cellular autophosphorylation (DELFIA)
# Procedure: NIH-3T3 cells overexpressing human IGF-1R or IR were plated in 96-well plates (10,000 cells/well) in culture media containing 10% fetal bovine serum and incubated at 37° C. in a 5% CO2 incubator. Twenty four hours post-plating, cells were treated with different concentrations of test compounds ranging from 30 uM to 1.5 nM. […] The fluorescence signal for cells treated with compounds was expressed as percent relative to 100% stimulation (IGF-1 or insulin stimulated signal).
pIC50: −log10 of the molar value.
endpoint_name: pIC50

Some solved entries appear below for comparison.
1) COc1c(Nc2nc(Nc3cccc(F)c3C(N)=O)c3cc[nH]c3n2)ccc(N2CCN(C(C)C)CC2)c1F < 6.30
2) CN(C)CC(=O)Nc1ccc(OC(F)(F)F)c(Nc2nc(Nc3ccc(F)cc3C(N)=O)c3cc[nH]c3n2)c1 6.30 to 7.00
3) COc1cc(N2CCN(CCS(C)(=O)=O)CC2)c(C)cc1Nc1nc(Nc2cccc(F)c2C(N)=O)c2cc[nH]c2n1 > 7.00

Ask | Which pIC50 value is on record for CN(C)CC(=O)Nc1ccc(OC(F)(F)F)c(Nc2nc(Nc3ccccc3C(N)=O)c3cc[nH]c3n2)c1 ?
Reply | 6.30 to 7.00

====

# target_or_test_system: ALK (Homo sapiens)
In this section we review reported IC50 values for a set of molecules.

Some solved entries appear below for comparison.
1. CNC(=O)c1c(F)cccc1Nc1nc(Nc2cc3c(cc2OC)CCN(C(C)C)C3)nc2[nH]ccc12 1.26 to 3.98 nM
2. CCN(C)CC(=O)N1CCCc2cc(OC)c(Nc3nc(Nc4cccc(F)c4C(=O)NC)c4cc[nH]c4n3)cc21 5.01 to 200 nM
3. CNC(=O)c1c(F)cc(Cl)cc1Nc1nc(Nc2cc3c(cc2OC)CCCN3C(=O)CN2CCCC2)nc2[nH]ccc12 1.26 to 3.98 nM
4. COc1cc(N2CCN(C(C)C)CC2)ccc1Nc1nc(Nc2cccc3c2C(=O)NC3)c2cc[nH]c2n1 0.251 to 1 nM

Now for the molecule whose IC50 we want.
Ask | Record CCN(CC)CC(=O)N1CCc2cc(OC)c(Nc3nc(Nc4cccc(F)c4C(=O)NC)c4cc[nH]c4n3)cc21 : what is its IC50 with ALK (Homo sapiens)?
Reply | 5.01 to 200 nM

====

# target_or_test_system: human IR (hIR) (Homo sapiens)
# Construct: containing amino acid residues 979-1382 of human IR
# Sequence (P06213 979-1382): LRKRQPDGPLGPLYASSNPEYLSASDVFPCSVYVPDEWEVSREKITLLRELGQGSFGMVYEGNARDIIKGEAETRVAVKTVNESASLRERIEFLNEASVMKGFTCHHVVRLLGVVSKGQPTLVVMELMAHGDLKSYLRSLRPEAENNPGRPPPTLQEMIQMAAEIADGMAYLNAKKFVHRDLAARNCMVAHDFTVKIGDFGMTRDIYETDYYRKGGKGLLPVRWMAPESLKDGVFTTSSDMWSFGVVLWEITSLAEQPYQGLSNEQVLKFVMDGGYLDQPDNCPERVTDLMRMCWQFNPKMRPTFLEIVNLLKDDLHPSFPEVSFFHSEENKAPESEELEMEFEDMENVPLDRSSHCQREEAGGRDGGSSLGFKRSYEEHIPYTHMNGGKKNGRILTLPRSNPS
# measurement_notes: TR-FRET kinase assay of purified hIR
# test_settings: activated hIR 0.5 nM, 10 μM ATP, values given as pIC50 category
endpoint_name: IC50

Some solved entries appear below for comparison.
1. COc1cc(C2=CCCN(C)C2)ccc1Nc1nc(Nc2ccc(F)cc2C(N)=O)c2cc[nH]c2n1 0.251 to 1 nM
2. CCCN(CCC)[C@@H](C)C(=O)N1CCc2cc(OC)c(Nc3nc(Nc4cccc(F)c4C(=O)NC)c4cc[nH]c4n3)cc21 5.01 to 158 nM
3. CNC(=O)c1c(F)cc(F)cc1Nc1nc(Nc2cc3c(cc2OC)CCN3C(=O)CN(C)C)nc2[nH]ccc12 0.251 to 1 nM
4. COc1cc2c(cc1Nc1nc(Nc3cccc(F)c3C(N)=O)c3c(C)c[nH]c3n1)N(C(=O)CN(C)C)CC2 0.251 to 1 nM
5. COc1cc2c(cc1Nc1nc(Nc3cccc(F)c3C(N)=O)c3cc[nH]c3n1)N(C(=O)[C@@H]1CCCN1C)CC2 1.26 to 3.98 nM
6. COc1cc2c(cc1Nc1nc(Nc3cccc(F)c3C(N)=O)c3c(F)c[nH]c3n1)N(C(=O)CN(C)C)CC2 0.251 to 1 nM

Ask | Which IC50 value is on record for COc1cc2c(cc1Nc1nc(Nc3cccc(F)c3C(N)=O)c3cc[nH]c3n1)N(C(=O)CN1CCN(C(C)C)CC1)CC2 ?
Reply | 5.01 to 158 nM

Ask | Which IC50 value is on record for CCNC(=O)c1c(F)cccc1Nc1nc(Nc2cc3c(cc2OC)CCN3C(=O)CN(C)C)nc2[nH]ccc12 ?
Reply | 1.26 to 3.98 nM

Ask | Which IC50 value is on record for Cc1ccc(NC(=O)CN2CCCC2)cc1Nc1nc(Nc2ccccc2C(N)=O)c2cc[nH]c2n1 ?
Reply | 0.251 to 1 nM

Ask | Which IC50 value is on record for CNC(=O)c1c(F)cccc1Nc1nc(Nc2cc3c(cc2OC)CCN(C(C)C)C3)nc2[nH]ccc12 ?
Reply | 1.26 to 3.98 nM

Cited source: patent US7981903B2
